- tgt: T1, N1 binding to cell surface expressed hJ1 (Homo sapiens, UniProt P78504)
- T1 construct: cell expressed full length human J1 (hJ1; HEK293 transfectants); expressed in transfected cells; host or cells: HEK293
- test summary: Notch binding blocking assay (FACS): N1 EGF11-13 beads staining human J1-expressing cells
- Parameters: key: +: Complete blocking; X: No blocking
- condition context: final antibody concentration 0.2 μg/ml
readout kind: Blocking of Notch1 binding to cell surface Jagged 1

| molecule | observed value |
| --- | --- |
| J1-183D variant 2: humanised/de-immunised J1-183D: J1-183D_VL_1 + J1-183D_VH_2 (antibody, V domains shown) VH: QVQLVQSGAELKKPGASVKVSCKVSGYAFTDYAIHWIRQAPGQGLEWMGIINTYYGDSKYAQKFQGRVTMTVDTSTSTAYMELSSLRSEDTAVYYCARGYDGFAYWGQGTLVTVSSASTKGP VL: DIQMTQSPSSLSASVGDRVTITCRTSENIYSYLTWYQQKPGKAPKLLVYNAKILAAGVPSRFSGSGSGTDFTLTISSLQPEDFATYYCQHHYDIPWTFGGGTKLEIKRT | X |
| J1-183D variant 4: humanised/de-immunised J1-183D: J1-183D_VL_1 + J1-183D_VH_4 (antibody, V domains shown) VH: QVQLVQSGAEVKKPGASVKVSCKASGYTFTDYAIHWVRQAPGQGLEWMGIINTYYGDSKYAQKFQGRVTMTVDTSTSTAYMELSSLRSEDTAVYYCARGYDGFAYWGQGTLVTVSSASTKGP VL: DIQMTQSPSSLSASVGDRVTITCRTSENIYSYLTWYQQKPGKAPKLLVYNAKILAAGVPSRFSGSGSGTDFTLTISSLQPEDFATYYCQHHYDIPWTFGGGTKLEIKRT | X |

Cited source: patent US9725518B2
